Biological target: rNTS2 receptor (Rattus norvegicus)
Sequence (Q63384 whole entry): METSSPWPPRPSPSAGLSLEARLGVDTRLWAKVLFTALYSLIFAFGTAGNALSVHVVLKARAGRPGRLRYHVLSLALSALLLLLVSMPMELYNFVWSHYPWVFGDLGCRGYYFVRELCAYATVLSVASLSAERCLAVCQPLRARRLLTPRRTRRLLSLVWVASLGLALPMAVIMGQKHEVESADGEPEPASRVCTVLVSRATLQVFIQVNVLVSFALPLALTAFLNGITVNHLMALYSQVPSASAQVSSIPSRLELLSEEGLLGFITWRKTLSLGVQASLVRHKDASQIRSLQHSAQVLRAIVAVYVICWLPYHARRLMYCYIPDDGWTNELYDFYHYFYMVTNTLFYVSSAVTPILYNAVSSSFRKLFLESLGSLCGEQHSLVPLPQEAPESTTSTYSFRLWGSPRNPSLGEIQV
Assay: 125I-NT competitive binding assay, whole CHO-kl cells over-expressing rNTS2
Settings: competition with 125I-NT; ± SEM; read-out: 125I-NT Binding NTS2 Ki
pKi: −log10 of the molar value.
Recorded pKi determines the label; the label ranges are LOW: < 6; MEDIUM: ≥ 6 and < 7; HIGH: ≥ 7

COc1ccc(-c2cc(C(=O)N[C@H](C(=O)O)C3CCCCC3)nn2-c2ccnc3cc(Cl)ccc23)c(OC)c1 [16b]	LOW
COc1cccc(OC)c1-c1cc(C(=O)N[C@H](C(=O)O)C2CCCCC2)nn1-c1ccc(F)cc1 [28b]	MEDIUM
COc1ccc(OC)c(-c2cc(C(=O)N[C@H](C(=O)O)C3CCCCC3)nn2-c2ccnc3cc(Cl)ccc23)c1 [15b]	MEDIUM
COc1ccccc1-c1cc(C(=O)N[C@H](C(=O)O)C2CCCCC2)nn1-c1cccc2ccccc12 [25b]	LOW
C[C@@H]1CN([C@H]2CC[C@](C#N)(c3ccc(F)cc3)CC2)CC[C@]1(C(=O)O)c1ccccc1 [compound 6, Levocabastine, reference compound]	HIGH
COc1ccccc1-c1cc(C(=O)NC2(C(=O)O)CCCCC2)nn1-c1ccnc2cc(Cl)ccc12 [23b]	MEDIUM
COc1cccc(OC)c1-c1cc(C(=O)NC2(C(=O)O)C3CC4CC(C3)CC2C4)nn1-c1ccc(C(=O)N(C)CCCN(C)C)cc1C(C)C (stereo not drawn) [5b, reference compound]	HIGH
COc1ccccc1-c1cc(C(=O)NC2(C(=O)O)C3CC4CC(C3)CC2C4)nn1-c1ccc(F)cc1 (stereo not drawn)	HIGH
COc1cccc(OC)c1-c1cc(C(=O)N[C@H](C(=O)O)C2CCCCC2)nn1-c1ccnc2cc(Cl)ccc12 [14b]	MEDIUM
